Reported GI50 values follow for various compounds
- System: UACC-257
- test summary: NCI tumour cell line growth inhibition, 48 h
The source made the active and inactive calls. No stated cut-off is given here; in the data, active = GI50 up to about 1.1 µM and inactive = higher.

# compound, endpoint value
measured = [
    ("COc1cc(COC(=O)N2CCCCC2C(=O)O)c([N+](=O)[O-])cc1OC (centres undefined)", "> 100 µM (inactive)"),
]

## Task Consider the compound CN1CCS(=O)(=O)NC(Cc2ccccc2)C(=O)N2CCCC2C1=O (centres undefined) . State its measured GI50.
## Result > 100 µM (inactive)

## Task Consider the compound COc1ccc(-c2nc(Nc3ccccc3)sc2Cc2sc(Nc3ccccc3)nc2-c2ccc(OC)cc2)cc1 . State its measured GI50.
## Result > 100 µM (inactive)

## Task Consider the compound COc1ccc(C(=O)/C=C/c2ccc3c(c2)OCO3)c(OCc2ccccc2)c1 . State its measured GI50.
## Result > 63 µM (inactive)
